# System name: T1, human IL-23R (human, UniProt Q5VWK5 24-629)
# T1 sequence (looked up): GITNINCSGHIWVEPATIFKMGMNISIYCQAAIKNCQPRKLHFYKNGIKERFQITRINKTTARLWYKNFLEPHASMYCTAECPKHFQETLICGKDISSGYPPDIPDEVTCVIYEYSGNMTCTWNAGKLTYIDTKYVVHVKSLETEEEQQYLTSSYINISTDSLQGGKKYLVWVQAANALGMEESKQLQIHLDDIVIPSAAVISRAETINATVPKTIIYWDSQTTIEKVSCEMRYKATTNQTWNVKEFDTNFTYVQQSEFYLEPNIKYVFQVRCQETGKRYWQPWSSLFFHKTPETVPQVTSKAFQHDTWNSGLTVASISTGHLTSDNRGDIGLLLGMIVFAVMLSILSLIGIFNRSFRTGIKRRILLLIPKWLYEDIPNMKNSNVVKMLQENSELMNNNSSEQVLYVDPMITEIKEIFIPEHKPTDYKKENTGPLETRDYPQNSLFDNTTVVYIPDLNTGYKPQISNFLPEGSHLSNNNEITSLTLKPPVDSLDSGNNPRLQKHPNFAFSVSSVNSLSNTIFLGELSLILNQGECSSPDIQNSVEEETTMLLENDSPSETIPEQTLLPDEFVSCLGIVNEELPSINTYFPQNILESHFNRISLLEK
# Protocol description: cell-based or functional assay
Bridge positions count the residues as written; N and C are the ends. Square brackets hold non-standard residues; d marks the D form. Trp(7-Ph) = N[C@@H](Cc1c[nH]c2c(-c3ccccc3)cccc12)C(=O)O; Trp(7-Me) = Cc1cccc2c(C[C@H](N)C(=O)O)c[nH]c12; 2Nal = N[C@@H](Cc1ccc2ccccc2c1)C(=O)O; AEF = NCCOc1ccc(C[C@H](N)C(=O)O)cc1; dNMeY = CN[C@H](Cc1ccc(O)cc1)C(=O)O; Cit = NC(=O)NCCC[C@H](N)C(=O)O; αMeL = CC(C)C[C@](C)(N)C(=O)O; Pen = CC(C)(S)[C@H](N)C(=O)O; αMeK = C[C@](N)(CCCCN)C(=O)O; Thp = NC1(C(=O)O)CCOCC1; Abu = CC[C@H](N)C(=O)O; Sar = CNCC(=O)O
Result type: PBMC pSTAT3 IC50

[in] What PBMC pSTAT3 IC50 value was documented for this binder, Ac-[dR][Pen]NT[Trp(7-Me)]K(Ac)[Pen][AEF][2Nal][Thp]ENN[dNMeY]-NH2 (disulfide 2-7) [Peptide No. 88] ?
[out] > 2 µM

[in] What PBMC pSTAT3 IC50 value was documented for this binder, Ac-[Abu]QT[Trp(7-Ph)]K(Ac)C[AEF][2Nal][αMeK]K(Ac)N[dK][Sar]-NH2 (thioether 1-6) [Peptide No. 18] ?
[out] 1.1 nM

[in] What PBMC pSTAT3 IC50 value was documented for this binder, Ac-[Abu]QT[Trp(7-Me)]K(Ac)C[AEF][2Nal][αMeK]K(Ac)N[dK][Sar]-NH2 (thioether 1-6) [Peptide No. 17] ?
[out] 0.791 nM

[in] What PBMC pSTAT3 IC50 value was documented for this binder, Ac-[Pen]NT[Trp(7-Me)][Cit][Pen][AEF][2Nal][αMeL]K(Ac)N[dH]-NH2 (disulfide 1-6; SMILES CC(=O)NCCCC[C@H](NC(=O)[C@](C)(CC(C)C)NC(=O)[C@H](Cc1ccc2ccccc2c1)NC(=O)[C@H](Cc1ccc(OCCN)cc1)NC(=O)[C@H]1NC(=O)[C@H](CCCNC(N)=O)NC(=O)[C@H](Cc2c[nH]c3c(C)cccc23)NC(=O)[C@H]([C@@H](C)O)NC(=O)[C@H](CC(N)=O)NC(=O)[C@@H](NC(C)=O)C(C)(C)SSC1(C)C)C(=O)N[C@@H](CC(N)=O)C(=O)N[C@H](Cc1c[nH]cn1)C(N)=O) [Peptide No. 85] ?
[out] 3 nM

[in] What PBMC pSTAT3 IC50 value was documented for this binder, RXQTWQCFXXENNY (Ac-[(D)Arg]-[Abu]-Q-T-W-Q-[Cys]-Phe[4-(2-aminoethoxy)]-[2-Nal]-[THP]-E-N-N-[(D)NMeTyr]-NH2; Abu-Cys thioether) [Peptide No. 8] ?
[out] 1 nM
